Target: UniProt:P37058
Sequence (P37058 whole entry): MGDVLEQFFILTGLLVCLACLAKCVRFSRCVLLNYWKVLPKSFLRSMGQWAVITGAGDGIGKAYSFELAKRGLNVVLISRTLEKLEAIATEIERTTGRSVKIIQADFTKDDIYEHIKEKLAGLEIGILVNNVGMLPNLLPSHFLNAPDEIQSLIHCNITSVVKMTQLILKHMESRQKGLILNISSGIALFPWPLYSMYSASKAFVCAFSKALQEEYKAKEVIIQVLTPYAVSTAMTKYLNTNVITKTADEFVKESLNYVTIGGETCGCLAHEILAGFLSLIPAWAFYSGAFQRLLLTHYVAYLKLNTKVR
Experiment: Inhibition of 17Beta-HSD3 expressed in homogenized HEK293 cells assessed as transformation of [14C]-4-androstene-3,17-dione into [14C]-testosterone in presence of NADPH at 0.1 uM
Type: cell-based
readout.kind: inhibition (%)
A number alone suffices; assume %.

Below: 5 molecules and their reported inhibition.
C[C@]12CC[C@@]3(C[C@@H]1CC[C@@H]1[C@@H]2CC[C@]2(C)C(=O)CC[C@@H]12)CN(Cc1cccc(C(F)(F)F)c1)C(=O)O3: 80
C[C@]12CC[C@](O)(CN3CCN(Cc4cccc(C(F)(F)F)c4)CC3)C[C@@H]1CC[C@@H]1[C@@H]2CC[C@]2(C)C(=O)CC[C@@H]12: 88
C[C@]12CC[C@](O)(CN3CCN(Cc4cccc(Cl)c4)CC3)C[C@@H]1CC[C@@H]1[C@@H]2CC[C@]2(C)C(=O)CC[C@@H]12: 85
C[C@@H]1CN(Cc2cc(C(F)(F)F)ccc2C(F)(F)F)[C@@H](C)CN1C[C@@]1(O)CC[C@@]2(C)[C@@H](CC[C@@H]3[C@@H]2CC[C@]2(C)C(=O)CC[C@@H]32)C1: 71
CCN(CCN1C[C@]2(CC[C@@]3(C)[C@@H](CC[C@@H]4[C@@H]3CC[C@]3(C)C(=O)CC[C@@H]43)C2)OC1=O)Cc1ccccc1: 71

inhibition of `C[C@]12CC[C@](O)(CN3CCN(Cc4ccc(C(F)(F)F)cc4)CC3)C[C@@H]1CC[C@@H]1[C@@H]2CC[C@]2(C)C(=O)CC[C@@H]12` on UniProt:P37058?
81

// provenance: ChEMBL document CHEMBL1811881
